Reference source for all entries: PubChem BioAssay AID179

Tested on: CEM cells HIV-1 protection, formazan growth assay
Assay: NCI AIDS Antiviral Assay;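 active = compounds giving half or more protection of infected cells from virus-caused growth loss, again on retest; inactive = the rest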
Procedure: The ability of compounds to protect human CEM cells from HIV-1 infection is measured as a screen for new compounds capable of inhibiting the HIV virus. Five concentrations of drug were tested on uninfected and infected cells and cell growth was measured using a soluble formazan assay. […] Compounds that provided at least 50% protection were retested. Compounds that provided at least 50% protection on retest were listed as moderately active. […]
Answer with one of the outcomes T = active, F = inactive

Examples from the recorded data:
Cc1cc(O)c(/C=N/C(N)=S)c(=O)o1 : F
CC(Oc1ccc(OCC2CCCCC2)cc1)C(=O)O (stereo unspecified) : F

Hi, do you know how Cc1c(O)c(OC2OC(CO)C(O)C(O)C2O)cc2c1CC[C@@H]1C2(C)C(=O)C[C@]2(C)[C@@H]([C@@](C)(O)C(O)CCC(C)(C)O)[C@H](O)C[C@@]12C (stereo partly specified) came out in this test?
F

What is the recorded call for this compound in the test? `C#CC(C)(C)Oc1ccc2c(=O)c(-c3ccc(OC)c(OC)c3)coc2c1`
F

What did this assay record as the result for `OCCN1CCN(C2=Nc3cccnc3Nc3cscc32)CC1` ?
F

Each compound tested received a call. Report the one for N#Cc1ccc(C2ON=C(c3ccccc3)N2C23CC4CC(CC(C4)C2)C3)cc1 (stereo unspecified) .
F

Could you kindly confirm the outcome this assay logged for CSCS(=O)C[C@H](CO)NC(=O)/C=C/c1c(C)[nH]c(=O)[nH]c1=O (stereo partly specified) ?
F

Status in this test for CC1(C)C2CC3OC3(C)C1C2 (stereo unspecified) ?
F

Outcome? C/C=C(/C)C(=O)O[C@H](C[C@@H](C)[C@H]1CC(c2ccoc2)OC1=O)[C@@]1(C)C(=O)CCC2O[C@]21C (stereo partly specified)
F

Status in this test for `O=c1c(O)c(-c2cc(O)c(O)c(O)c2)oc2cc(O)ccc12` ?
F

What did the test return for `COc1ccccc1-n1c(C)nc2ccccc2c1=O` ?
F

# lookup: test call for `c1ccc(C2=C(c3ccccc3)/N=N/C(c3ccccc3)=C(c3ccccc3)\N=N\2)cc1`
F

What classification did `O=S(=O)(CSc1ccccc1)c1ccccc1` end up with in this test?
F

Given `Clc1ccc(C2=CCN3CC=C(c4ccc(Cl)cc4)C23)cc1` , state the outcome it received in this test.
F

What did this assay record as the result for CCc1cccc(C)c1NC(=O)CC1Sc2ccccc2NC1=O (stereo unspecified) ?
F

Lab log entry: NC1CC(=O)c2c(I)sc(I)c21 (stereo unspecified) — outcome as called in the assay?
F

Lab log entry: COc1ccccc1C1C=NNC1 (stereo unspecified) — outcome as called in the assay?
F
